meta.source: the supplement of paper PMC12042874

Experiment: amyloid nucleation score (Sup35N fusion, yeast selection) (log enrichment); library NNK1; higher = more nucleation; inactive = no reads after selection;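 note: zero at mode of non-aggregating sequences after 7 days selection at 30°C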
Measured Metric: amyloid nucleation score
Just the number, please, no unit attached.

See these solved cases before continuing.
> print(dat)
              substance  obs.value
1  GHWPQRCIMVVECYQRQAHK      0.115
2          VISPNSLTCCAH     -0.146
3  RRVGLVASDTGRGEWWTRSM     -0.015
4  NGCLQRKNWLVSGSFLHFVD     -0.295
5  LFCSLGSSPAYVNKWCVHLE      0.862
6         HHSVGSYRINCLV       3.39
7  VWRSVSRCSCVSSSIGGVTV     -0.868
8  VNDWALVLSNLDSNVLSSRT      0.566

Write down amyloid nucleation score measured for item DWLHQSRL
0.239

Identify measured amyloid nucleation score associated with PMICFGWALIRYVTFQDLPV
0.276

Using the record for EDLRLGSSYYEMANEASYGT , state its measured amyloid nucleation score.
1.82

Return amyloid nucleation score for the following substance: YMVLVDLRTGRIHGSAGEKR
-0.174

Dear colleague, please send me the reported amyloid nucleation score for FIIDYKTDKRSEFWL when you can.
0.215

Provide amyloid nucleation score value for the following substance: AVSLRWCTGINGADKSCAYQ
1.19

Name the recorded amyloid nucleation score of the substance listed here: CISIACSAD
0.342

Return the recorded amyloid nucleation score value; entry: KWNCLVSCRLCELYLIPLI
3.58

Please give measured amyloid nucleation score of the following entry: FHAWSVFFIVRCLTEVRGYL
-0.081

* * *

Assay: amyloid nucleation score (Sup35N fusion, yeast selection) (log enrichment); library NNK1; higher = more nucleation; inactive = no reads after selection
Decide using amyloid nucleation score: a value greater than or equal to 0.2 is T, a smaller one is F.

Could you verify whether the entry YSPFYYVDI shows amyloid nucleation score of no less than 0.2?
T

Can TIVSGTRSYNLHRSILLLHL be said to have amyloid nucleation score at or above 0.2?
T

* * *

Assay: amyloid nucleation score (Sup35N fusion, yeast selection) (log enrichment); library NNK1; higher = more nucleation; inactive = no reads after selection
Label fulfilled when amyloid nucleation score is at or above 0.5; otherwise label not fulfilled.

As a guide, the following entries are already answered.
> print(dat)
             seq.string  class.assignment
1  FDVLVIFGFDTNRDACSDAL     not fulfilled
2             ASRSSIPSG     not fulfilled
3  LGAMRLFTRSLFLADWKYDV     not fulfilled
4  FFCWTCSAINLYRLLGPPMF         fulfilled
5     FFAHNRTMSRRNQAFGF         fulfilled
6  GSNIGQSFWYRRWVQQRTAE     not fulfilled
7         FELTVGIWQHWRT     not fulfilled
8       RPGMEADLLVNLPLF         fulfilled

Check this sequence for amyloid nucleation score at or above 0.5: TCTFPKVIQSYAGRLAMPGY
not fulfilled

Is amyloid nucleation score for LVTDPWISTLSSFHLWGGFM at or above 0.5?
fulfilled

In plain terms: is recorded amyloid nucleation score at least 0.5 for EPSLERRRRPSEMVGAKGWI ?
not fulfilled

# check: amyloid nucleation score of LIVVVTLSGEHRFSVMVYRN is greater than or equal to 0.5
not fulfilled

* * *

Experiment: amyloid nucleation score (Sup35N fusion, yeast selection) (log enrichment); library NNK3; higher = more nucleation; inactive = no reads after selection
Measured Metric: amyloid nucleation score

As a guide, the following entries are already answered.
> print(dat)
              substance  obs.value
1         FWFYATLMGEQDK     -0.331
2  VVMVLRVLLWWFRTSIMSRK      0.467
3  SSYLMFDMLMRYYLNYFMCR   inactive
4  GISSKRMFLSLSAFERSVYI   inactive
5              FMLNVVDY   inactive

Answer with reported amyloid nucleation score of YLNPAFELFKRMSNRFFVLA
-1.02

// Input: VVILWGR . Output its amyloid nucleation score only.
inactive

Kindly indicate its recorded amyloid nucleation score. Item: SFCMCGGLLVRSYRSFRFVR
inactive

* * *

Assay: amyloid nucleation score (Sup35N fusion, yeast selection) (log enrichment); library NNK1; higher = more nucleation; inactive = no reads after selection
Measured Metric: amyloid nucleation score
Number only, please.

Below, each entry is followed by its recorded amyloid nucleation score result.
> print(dat)
             seq.string           measured.metric  obs.value
1  ETHVRAPSGGNAGPLRRGSS  amyloid nucleation score     -0.877
2  FLYGYGADPMPMSSVGRGVK  amyloid nucleation score     -0.864
3  VKFCCFGLLCELYSGHSGRM  amyloid nucleation score       1.33
4  RVLRVFLGDTLFYCQSGSGL  amyloid nucleation score       1.84
5  TRKPEPINPQSIWSTVLQHE  amyloid nucleation score       0.54

Report amyloid nucleation score, nothing else, for this sequence: EASLAPYEESELA
1.76

Report amyloid nucleation score for AVCIMFRVNRFIRIVNTGGC
0.042

For the sequence VLLIPMTKAKMKMSIW , give its reported amyloid nucleation score.
0.584

For the sequence RRRPGPLPRCAF , give its measured amyloid nucleation score value.
1.96

State its amyloid nucleation score for this sequence: VRHCTQINSPFYYDFN
-0.318

Dear colleague, please send me the reported amyloid nucleation score for SKQFQASFHRVYSSVFSGWH when you can.
0.669

For the sequence GSELCGVGARSQDSRIAGRV , give its measured amyloid nucleation score value.
-0.282

Tell me its amyloid nucleation score given EKHEVVCIVKTVR as the entry.
0.424

Read off the recorded amyloid nucleation score for HCYRITYKRSNRDVL
1.76

Recall and state the measured amyloid nucleation score for GLDKALTFKALCDLLRNSLC .
0.598

* * *

Reported amyloid nucleation score values for a set of substances
Assay: amyloid nucleation score (Sup35N fusion, yeast selection) (log enrichment); library NNK1; higher = more nucleation; inactive = no reads after selection
Please give the numeric answer without any surrounding text.

Below are worked cases with known answers.
> print(dat)
              substance  obs.value
1            KMQPQMTCFS     -0.435
2         YAHGGWDLVRRNS      0.232
3             SCLLTMSLE       0.11
4            MTPKLVQSRT      0.106
5  SLLSYMFQGDDVKCHGSAVL       1.01

For the substance ILEEYYLCIWLEVAWHICHA , give its measured amyloid nucleation score value.
-0.571

Indicate the recorded amyloid nucleation score value for this substance: HGFNPNWGSRVKGSMVRV
-0.044

For the substance ASIKTRTSFRVKVWYWVRNL , report amyloid nucleation score.
-0.598

Tell us which amyloid nucleation score value is on record for PAGNNYDNNVSNNGTCKEFW
0.294

Using known records, supply amyloid nucleation score for MHRSFFHVM
2.33

Determine from records and report amyloid nucleation score for KKVINPYFFGCTGCNNTQRK
-0.149

For WVGFRQCLSASMCAPDPQTD , write its amyloid nucleation score.
0.748

For EWRFCKS , write its amyloid nucleation score.
-0.335

For the substance LTRDLMCEPVLCGLLPVSGR , report amyloid nucleation score.
0.314

Using the record for KCRKASMSSPILDLCTRMRC , state its measured amyloid nucleation score.
-1.18

Fill in reported amyloid nucleation score for this entry: TLLIMLLYKSTILCVQPDLM
0.032

Give me measured amyloid nucleation score, please, for this substance: FSRSTQVSER
1.38

Quick one: give measured amyloid nucleation score for LTRDEGPIEDKNVEARFRVS
0.098

Return amyloid nucleation score (reported value) for this substance: NRLVMLLLTLSNGSCEKVRD
2.95

Return amyloid nucleation score for the following substance: LLLLAIIDRYSIWK
-0.183

* * *

Test: amyloid nucleation score (Sup35N fusion, yeast selection) (log enrichment); library NNK2; higher = more nucleation; inactive = no reads after selection
Reported values of amyloid nucleation score for individual entries
Form field (numeric): enter value without unit.

Observe how each entry below is paired with its result.
> print(dat)
              substance           measured.metric  obs.value
1  LNRTRYIAISKVLNRFSVSR  amyloid nucleation score     -0.237
2  QSTWSHGFKGRSVWRGLTKG  amyloid nucleation score       1.66

// moving on: another record for amyloid nucleation score
Note amyloid nucleation score for the substance shown: CDMPLKLWTLAVLPLDVPYR
0.179

* * *

Assay: amyloid nucleation score (Sup35N fusion, yeast selection) (log enrichment); library NNK2; higher = more nucleation; inactive = no reads after selection
Measured Metric: amyloid nucleation score

> print(dat)
             seq.string  obs.value
1  CTAYYCDVSLNYVVRYNFPL   inactive
2  KIVLGYCVLKITEQELMLWV   inactive
3  KAIFSCDARFVRWNAHNREC   inactive
